System: LoxA
measurement_protocol: LoxA secondary product profile
Format: biochemical, Pseudomonas aeruginosa
test_parameters: 10 μM substrate, pH 7.0
endpoint: times slower relative to the Kcat with AA

Some solved entries appear below for comparison.
compound: CCCCCC(/C=C/C=C\C/C=C\C/C=C\CCCC(=O)O)OO (stereo not shown) [15-HpETE, 15-hydroperoxyeicosatetraenoic acid]
result: 10,000 times
--
compound: CCCCC/C=C\C/C=C\C/C=C\C=C\[C@@H](O)CCCC(=O)O
result: 100,000 times

## Task Lab request: please report times slower relative to the Kcat with AA under test system LoxA for CCCCCC=CCC=CCC=CC=CC(CCCC(=O)O)OO (stereo not shown) [5-HpETE, 5-hydroperoxyeicosatetraenoic acid]
## Result 100,000 times

## Task Lab request: please report times slower relative to the Kcat with AA under test system LoxA for "CCCCC[C@H](O)/C=C/C=C\C/C=C\C/C=C\CCCC(=O)O"
## Result 100,000 times
